Data origin: patent US11225481B2

target.or.test.system: BRD4(BD1) (Homo sapiens)
Construct: a BRD4(BD1) synthetic gene that includes a TEV cleavage site was purchased from LifeTechnology; made in house
method.description: HTRF assay on robot-synthesised focused library (Example 4 bis)
Type: binding
reported.conditions: Table 2 bis; focused library without intermediary purification; read-out: HTRF (IC50, μM), effect on BRD4(BD1) activity
So I've got a bunch of compounds here, and I need their IC50 values.
Numbers only, in µM.

>>> reported("CCn1c(CSc2nc3ncccn3n2)nc2c1c(=O)[nH]c(=O)n2Cc1ccc(Cl)cc1")
10.6
>>> reported("CCn1c(COc2ncc(-c3ccc(C(=O)O)s3)cc2C)nc2c1c(=O)[nH]c(=O)n2Cc1ccc(Cl)cc1")
4.4
>>> reported("CCCCn1c(=O)[nH]c(=O)c2c1nc(CSc1nc(O)c3c(C)cc(C)nc3n1)n2CC")
4.4
>>> reported("CCn1c(CSc2nnc(Cc3cc(C)nn3C)n2CC2CCCO2)nc2c1c(=O)[nH]c(=O)n2Cc1ccc(Cl)cc1 (stereo not drawn)")
5.5
>>> reported("CCCCn1c(=O)[nH]c(=O)c2c1nc(CSc1nc3ccc(C(=O)O)cc3o1)n2CC")
19.2
>>> reported("CCn1c(CSc2nc3cc(S(=O)(=O)N4CCOCC4)ccc3o2)nc2c1c(=O)[nH]c(=O)n2Cc1ccc(Cl)cc1")
8.9
>>> reported("CCCCn1c(=O)[nH]c(=O)c2c1nc(COc1ccc(-n3[nH]c(C(=O)O)cc3=O)nn1)n2CC")
33.4
>>> reported("CCCCn1c(=O)[nH]c(=O)c2c1nc(CSc1nc3nc(C)ccc3o1)n2CC")
7.1

Count: 2. Required value per item: IC50.
1. CCCCn1c(=O)[nH]c(=O)c2c1nc(COc1cccc(C(=O)NCc3ccccc3)c1)n2CC
2. CCCCn1c(=O)[nH]c(=O)c2c1nc(COc1ccc(C3CNCC3C(=O)O)cc1)n2CC (stereo not drawn)

1: 30.2; 2: 11.6

Please give IC50, item by item, for the list that follows.
1. CCn1c(CSc2nc3cc(C(=O)OC)ccc3o2)nc2c1c(=O)[nH]c(=O)n2Cc1ccc(Cl)cc1
2. CCn1c(CSc2nc3cc(S(=O)(=O)N(C)C)ccc3o2)nc2c1c(=O)[nH]c(=O)n2Cc1ccc(Cl)cc1
3. CCn1c(CSc2nc3cc(S(=O)(=O)CC)ccc3o2)nc2c1c(=O)[nH]c(=O)n2Cc1ccc(Cl)cc1

1. 8.9
2. 4.7
3. 6.9

# map each compound to its IC50
1. CCn1c(COc2ccc(C3NC(C(=O)O)CS3)cc2)nc2c1c(=O)[nH]c(=O)n2Cc1ccc(Cl)cc1 (stereo not drawn)
2. CCCCn1c(=O)[nH]c(=O)c2c1nc(CSc1nc3cc(S(=O)(=O)N4CCOCC4)ccc3[nH]1)n2CC

1. 7.5
2. 38.2

###

target.or.test.system: BRDT(BD1) (Homo sapiens, UniProt Q58F21)
Construct: purchased BPS Bioscience
method.description: HTRF bromodomain selectivity profile
Type: binding
reported.conditions: Table 3 selectivity profile
// assign yes (1) if IC50 falls strictly below 8 µM, else no (0) (ties count as no (0))

Previously resolved entries follow.
>>> class_name("CCc1cc(CC)n2nc(SCc3nc4c(c(=O)[nH]c(=O)n4Cc4ccc(Cl)cc4)n3CC)nc2n1 [Compound 26a]")
"no (0)"
>>> class_name("Cn1cnc2c1c(=O)[nH]c(=O)n2Cc1ccc(Cl)cc1")
"no (0)"
>>> class_name("CCn1cnc2c1c(=O)[nH]c(=O)n2Cc1ccc(Cl)cc1")
"yes (1)"

Check if IC50 falls below 8 µM for CCn1c(CSc2nc3nc(C)cc(C)n3n2)nc2c1c(=O)[nH]c(=O)n2Cc1ccc(Cl)cc1 [Compound 25a] . no (0)

Queued: CCCCc1c(C)nc2nc(SCc3nc4c(c(=O)[nH]c(=O)n4CCCC)n3CC)nn2c1C [Compound 26b] no (0)

###

For each entry below, report its IC50 value.
target.or.test.system: BRD2(BD1) (Homo sapiens)
Construct: purchased BPS Bioscience
Sequence (P25440 74-180 limits assumed): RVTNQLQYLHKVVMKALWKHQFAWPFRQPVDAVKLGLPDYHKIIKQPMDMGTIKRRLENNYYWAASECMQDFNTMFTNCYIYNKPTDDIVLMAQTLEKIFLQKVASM
method.description: HTRF bromodomain selectivity profile
Format: binding
reported.conditions: Table 3 selectivity profile

>>> reported("CCCCn1c(=O)[nH]c(=O)c2c1ncn2CC")
"18.8 µM"
>>> reported("CCc1cc(CC)n2nc(SCc3nc4c(c(=O)[nH]c(=O)n4Cc4ccc(Cl)cc4)n3CC)nc2n1 [Compound 26a]")
"31.9 µM"
>>> reported("Cn1cnc2c1c(=O)[nH]c(=O)n2Cc1ccc(Cl)cc1")
"> 100 µM"
>>> reported("CCn1c(CSc2n[nH]c(N)n2)nc2c1c(=O)[nH]c(=O)n2Cc1ccc(Cl)cc1 [Compound 22a]")
"30 µM"
>>> reported("CCCCc1c(C)nc2nc(SCc3nc4c(c(=O)[nH]c(=O)n4CCCC)n3CC)nn2c1C [Compound 26b]")
"59 µM"
>>> reported("CCn1cnc2c1c(=O)[nH]c(=O)n2Cc1ccc(Cl)cc1")
"4.7 µM"

Form: Entry = CCn1c(CSc2nc3nc(C)cc(C)n3n2)nc2c1c(=O)[nH]c(=O)n2Cc1ccc(Cl)cc1 [Compound 25a] | System = BRD2(BD1) (Homo sapiens) | IC50 = ____ 30.1 µM

###

target.or.test.system: BRD2(BD2) (Homo sapiens)
Construct: purchased BPS Bioscience
Sequence (P25440 344-453 limits assumed): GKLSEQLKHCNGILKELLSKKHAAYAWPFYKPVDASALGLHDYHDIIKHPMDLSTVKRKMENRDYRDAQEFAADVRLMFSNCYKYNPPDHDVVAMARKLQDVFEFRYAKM
method.description: HTRF bromodomain selectivity profile
Type: binding
reported.conditions: Table 3 selectivity profile
recorded.endpoint: IC50 (µM)
Numbers only, in µM.

Some compounds with known IC50 results, for comparison:
>>> reported("Cn1cnc2c1c(=O)[nH]c(=O)n2Cc1ccc(Cl)cc1")
7
>>> reported("CCCCn1c(=O)[nH]c(=O)c2c1ncn2CC")
6.6
>>> reported("CCn1cnc2c1c(=O)[nH]c(=O)n2Cc1ccc(Cl)cc1")
1.6

Query: IC50; subject: CCc1cc(CC)n2nc(SCc3nc4c(c(=O)[nH]c(=O)n4Cc4ccc(Cl)cc4)n3CC)nc2n1 [Compound 26a] 9.5

###

For each of the compounds below, state its IC50.
target.or.test.system: BRD4(BD1) (Homo sapiens)
Construct: a BRD4(BD1) synthetic gene that includes a TEV cleavage site was purchased from LifeTechnology; made in house
method.description: HTRF assay, disruption of bromodomain/histone peptide interaction
Assay type: binding
reported.conditions: HTRF; mean ± SD of three experiments; Table 2; read-out: IC50 μM, effect on BRD4(BD1) activity

Answered examples (8):
>>> reported("CCn1cnc2[nH]c(NC(=O)OC(C)(C)C)nc(=O)c21")
"> 100 µM"
>>> reported("CCn1c(CSc2n[nH]c(N)n2)nc2c1c(=O)[nH]c(=O)n2Cc1ccc(Cl)cc1 [Compound 22a]")
"26.4 µM"
>>> reported("CCn1c(CSc2cc3ccccc3[nH]2)nc2c1c(=O)[nH]c(=O)n2Cc1ccc(Cl)cc1 [Compound 24a]")
"> 100 µM"
>>> reported("CCn1c(Br)nc2c1c(=O)[nH]c(=O)n2Cc1ccc(Cl)cc1 [Compound 12b]")
"< 100 µM"
>>> reported("O=c1[nH]c(=O)n(Cc2ccc(Cl)cc2)c2nc(Br)[nH]c12 [Compound 11c]")
"> 100 µM"
>>> reported("CCn1c(S)nc2c1c(=O)[nH]c(=O)n2C [Compound 14c]")
"< 100 µM"
>>> reported("CCn1cnc2c1c(=O)nc(NC(=O)OC(C)(C)C)n2C(=O)OC(C)(C)C")
"> 100 µM"
>>> reported("O=c1[nH]c(=O)n(Cc2ccc(Cl)cc2)c2nc(CO)[nH]c12 [Compound 17b]")
"> 100 µM"

Kindly consider the entry below.
Query the reported IC50 for BRD4(BD1) (Homo sapiens); item: "CCn1cnc2[nH]c(=O)[nH]c(=O)c21" > 100 µM

###

target.or.test.system: BRD4(BD1) (Homo sapiens)
Construct: a BRD4(BD1) synthetic gene that includes a TEV cleavage site was purchased from LifeTechnology; made in house
method.description: HTRF assay on robot-synthesised focused library (Example 4 bis)
Type: binding
reported.conditions: Table 2 bis; focused library without intermediary purification; read-out: HTRF (IC50, μM), effect on BRD4(BD1) activity
recorded.endpoint: IC50 (µM)
Give bare numbers, in µM.

>>> reported("CCc1c(C(=O)O)cnn1-c1ccc(OCc2nc3c(c(=O)[nH]c(=O)n3Cc3ccc(Cl)cc3)n2CC)nn1")
6.5

I need IC50 for every entry listed below, if you could help.
1. CCn1c(CSc2nc3ccc(C(=O)O)cc3[nH]2)nc2c1c(=O)[nH]c(=O)n2Cc1ccc(Cl)cc1
2. CCCCn1c(=O)[nH]c(=O)c2c1nc(COc1nc3cc(C(=O)O)ccc3[nH]1)n2CC

5.1
45.3

Required: IC50, one value per compound below.
1. CCn1c(COc2cccc(C(=O)NCc3ccccc3)c2)nc2c1c(=O)[nH]c(=O)n2Cc1ccc(Cl)cc1
2. CCOC(=O)c1ccc2c(c1)nc(SCc1nc3c(c(=O)[nH]c(=O)n3Cc3ccc(Cl)cc3)n1CC)n2CC
3. CCn1c(CSc2nc3cc(S(=O)(=O)N4CCCCC4)ccc3o2)nc2c1c(=O)[nH]c(=O)n2Cc1ccc(Cl)cc1
4. CCn1c(CSc2nc3nc(C)c(CCC(=O)O)c(C)n3n2)nc2c1c(=O)[nH]c(=O)n2Cc1ccc(Cl)cc1

1: 3.9; 2: 16.8; 3: 2.7; 4: 14.2

Please supply IC50 for each of the following items, keeping them in order.
1. CCn1c(CSc2nc3cc([N+](=O)[O-])ccc3o2)nc2c1c(=O)[nH]c(=O)n2Cc1ccc(Cl)cc1
2. CCCCn1c(=O)[nH]c(=O)c2c1nc(COc1ccc3c(=O)c(Oc4ccccc4)coc3c1)n2CC
3. CCCCn1c(=O)[nH]c(=O)c2c1nc(CSc1nc3cc(S(=O)(=O)CC)ccc3o1)n2CC
4. CCCCn1c(=O)[nH]c(=O)c2c1nc(COc1ccc(Nc3nc4ccccc4c(=O)[nH]3)cc1)n2CC

8.4
30.1
16.6
33

For every listed record, write down its IC50.
1. CCCCn1c(=O)[nH]c(=O)c2c1nc(CSc1nc3cc(C(=O)O)ccc3o1)n2CC
2. CCCCn1c(=O)[nH]c(=O)c2c1nc(COc1ccc3c(=O)c(-c4ccccc4)coc3c1)n2CC
3. CCn1c(CSc2nc3nc(C)c(Br)cc3[nH]2)nc2c1c(=O)[nH]c(=O)n2Cc1ccc(Cl)cc1
4. CCCCn1c(=O)[nH]c(=O)c2c1nc(CSc1nc3nc(C)c(CCC(=O)O)c(C)n3n1)n2CC

3
35.2
4.2
8.5
